assay: Sirolimus concentrations in whole blood samples after balloon inflation; format: in vivo, rabbit; settings: rabbit, whole blood, rabbit #3, 5 min after 2nd balloon inflation; cumulative of 2 coated balloons; read-out: Extraction Conc.
PROPERTY MEASURED: concentration at 5 min (ng/mL)
Please state the figure in ng/mL; there is no need to write the unit.

[Q] Given the entry CO[C@H]1C[C@@H]2CC[C@@H](C)[C@@](O)(O2)C(=O)C(=O)N2CCCC[C@H]2C(=O)O[C@H]([C@H](C)C[C@@H]2CC[C@@H](O)[C@H](OC)C2)CC(=O)[C@H](C)/C=C(\C)[C@@H](O)[C@@H](OC)C(=O)[C@H](C)C[C@H](C)/C=C/C=C/C=C/1C , report its measured concentration at 5 min.
[A] 22.2

###

assay: Sirolimus concentrations in whole blood samples after balloon inflation; assay type: in vivo, rabbit; settings: rabbit, whole blood, rabbit #1, 15 min after 2nd balloon inflation; cumulative of 2 coated balloons; read-out: Extraction Conc.
PROPERTY MEASURED: concentration at 15 min
Respond with a number, then the unit of measure.

[Q] Given the entry CO[C@H]1C[C@@H]2CC[C@@H](C)[C@@](O)(O2)C(=O)C(=O)N2CCCC[C@H]2C(=O)O[C@H]([C@H](C)C[C@@H]2CC[C@@H](O)[C@H](OC)C2)CC(=O)[C@H](C)/C=C(\C)[C@@H](O)[C@@H](OC)C(=O)[C@H](C)C[C@H](C)/C=C/C=C/C=C/1C [Sirolimus, rapamycin] , report its measured concentration at 15 min.
[A] 11.4 ng/mL
